TARGET_ENTITY: Glucagon receptor (Homo sapiens, UniProt P47871)
Sequence (P47871 whole entry): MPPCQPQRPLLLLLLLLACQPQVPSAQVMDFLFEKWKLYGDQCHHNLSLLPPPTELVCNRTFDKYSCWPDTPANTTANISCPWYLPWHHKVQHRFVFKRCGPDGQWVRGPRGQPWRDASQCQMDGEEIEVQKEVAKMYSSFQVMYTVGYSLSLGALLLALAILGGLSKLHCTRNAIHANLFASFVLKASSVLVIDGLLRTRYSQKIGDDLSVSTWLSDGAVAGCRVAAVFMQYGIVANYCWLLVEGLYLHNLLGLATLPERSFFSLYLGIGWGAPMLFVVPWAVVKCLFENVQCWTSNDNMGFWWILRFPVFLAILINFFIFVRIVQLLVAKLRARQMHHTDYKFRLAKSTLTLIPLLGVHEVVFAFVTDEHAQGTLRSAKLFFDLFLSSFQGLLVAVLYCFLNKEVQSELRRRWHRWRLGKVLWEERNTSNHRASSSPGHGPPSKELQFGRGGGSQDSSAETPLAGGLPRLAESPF
ASSAY_REMARKS: Binding affinity towards human Glucagon Receptor by the displacement of [125I]-glucagon
MEASUREMENT_TYPE: pIC50
Field pIC50 (float): negative decimal logarithm of the concentration in molar.

For this compound ( O=C(N/N=C/c1ccc(O)c2ccccc12)c1ccc(O)c(Cl)c1 ), measured pIC50 is 6.70

###

TARGET_ENTITY: Glucagon receptor (Homo sapiens, UniProt P47871)
ASSAY_REMARKS: Binding affinity for human Glucagon Receptor
Field 'label' (enum: satisfied / not satisfied). Set to satisfied when IC50 is strictly under 5 µM; else not satisfied.

Please review the entries below; each comes with its answer.
> print(dat)
                              line.notation    label.value
1  COc1cccc(C(=O)N/N=C/c2ccc(OC)c3ccccc23)c1  not satisfied
2  O=C(N/N=C/c1ccc(O)c2ccccc12)c1ccc(O)c(Br)c1      satisfied

Lab note: IC50 threshold 5 µM. Does this compound come in strictly under it? COc1cc(/C=N/NC(=O)c2cccc3ccccc23)ccc1O
not satisfied

Lab note: IC50 threshold 5 µM. Does this compound come in strictly under it? O=C(N/N=C/c1ccc(O)c2ccccc12)c1ccc(O)c(CN2CCOCC2)c1
not satisfied

Lab note: IC50 threshold 5 µM. Does this compound come in strictly under it? COc1cc(C(=O)N/N=C/c2[nH]cnc2C)ccc1O
not satisfied

###

TARGET_ENTITY: Glucagon receptor (Homo sapiens)
ASSAY_REMARKS: Binding affinity for human Glucagon Receptor
MEASUREMENT_TYPE: pIC50
Field pIC50 (float): negative decimal logarithm of the concentration in molar.

> print(dat)
                              line.notation  recorded.result
1  COc1cc(C(=O)N/N=C/c2ccc(N(C)C)c3ccccc23)ccc1O             5.09
2  COc1cc(C(=O)N/N=C/c2ccc(OC)c3ccccc23)ccc1O             5.54
3  COc1cc(C(=O)N/N=C/c2ccc(OC(F)(F)F)cc2)ccc1O             4.37
4      O=C(N/N=C/c1cccc2ccccc12)c1ccc(O)cc1             5.74
5   O=C(N/N=C/c1ccc(O)c2ccccc12)c1ccc(O)cc1             5.92

Tested on Glucagon receptor (Homo sapiens): CCn1c2ccccc2c2cc(/C=N/NC(=O)c3ccc(O)c(OC)c3)ccc21 . Observed pIC50: 5.20

Tested on Glucagon receptor (Homo sapiens): COc1cc(C(=O)N/N=C/c2ccc(-c3ccc(C)c(Cl)c3)o2)ccc1O . Observed pIC50: 4.92

Tested on Glucagon receptor (Homo sapiens): COc1cc(C(=O)N/N=C/c2ccc(C(C)C)cc2)ccc1O . Observed pIC50: 4.37

Tested on Glucagon receptor (Homo sapiens): Nc1cc(C(=O)N/N=C/c2ccc(O)c3ccccc23)ccc1O . Observed pIC50: 5.70

Tested on Glucagon receptor (Homo sapiens): O=C(N/N=C/c1ccc(O)c2ccccc12)c1ccc(O)c(O)c1 . Observed pIC50: 5.47

Tested on Glucagon receptor (Homo sapiens): COc1cc(C(=O)N/N=C/c2ccc(O)c3ccccc23)cc(Cl)c1O . Observed pIC50: 4.22

Tested on Glucagon receptor (Homo sapiens): COc1cc(C(=O)N/N=C/c2ccc(-c3ccccc3)cc2)ccc1O . Observed pIC50: 4.59

Tested on Glucagon receptor (Homo sapiens): COc1cc(C(=O)N/N=C/c2ccc(C(C)(C)C)cc2)ccc1O . Observed pIC50: 4.54

Tested on Glucagon receptor (Homo sapiens): COc1cc(C(=O)N/N=C/c2c[nH]c3ccccc23)ccc1O . Observed pIC50: 4.64
